- Species on record: Homo sapiens
- experiment_description: Ratio of IC50 for human COX1 to IC50 for human COX2
measure: Ratio IC50

[[record]]
molecule = "Cn1cccc1CNc1cc(C(F)(F)F)nc(-c2ccc(S(C)(=O)=O)cc2)n1"
endpoint_result = "> 562"

[[record]]
molecule = "CS(=O)(=O)c1ccc(-c2nc(NCc3ccc4ccccc4c3)cc(C(F)(F)F)n2)cc1"
endpoint_result = "> 1"


Answer for every listed entry: what is its Ratio IC50? The entries follow.
1. CS(=O)(=O)c1ccc(-c2nc(NC3CCCC3)cc(C(F)(F)F)n2)cc1
2. CS(=O)(=O)c1ccc(-c2nc(NCc3ccco3)cc(C(F)(F)F)n2)cc1
3. NS(=O)(=O)c1ccc(-c2nc(NCc3ccsc3)cc(C(F)(F)F)n2)cc1
4. CS(=O)(=O)c1ccc(-c2nc(NCC3CCCC3)cc(C(F)(F)F)n2)cc1
5. NS(=O)(=O)c1ccc(-c2nc(NCc3csc4ccccc34)cc(C(F)(F)F)n2)cc1

1. > 522
2. > 498
3. 1390
4. > 1
5. > 10

Answer for every listed entry: what is its Ratio IC50? The entries follow.
1. CS(=O)(=O)c1ccc(-c2nc(NCc3nc4ccccc4[nH]3)cc(C(F)(F)F)n2)cc1
2. NS(=O)(=O)c1ccc(-c2nc(NCc3cccs3)cc(C(F)(F)F)n2)cc1
3. NS(=O)(=O)c1ccc(-c2nc(NCc3ccccc3)cc(C(F)(F)F)n2)cc1
4. NS(=O)(=O)c1ccc(-c2nc(NCc3ccncc3)cc(C(F)(F)F)n2)cc1
5. CS(=O)(=O)c1ccc(-c2nc(NCC3CC=CCC3)cc(C(F)(F)F)n2)cc1 (stereo unspecified)
6. NS(=O)(=O)c1ccc(-c2nc(NCc3ccco3)cc(C(F)(F)F)n2)cc1

1. > 1
2. 3530
3. > 25
4. > 52
5. > 2320
6. > 6920

Answer for every listed entry: what is its Ratio IC50? The entries follow.
1. CS(=O)(=O)c1ccc(-c2nc(NCc3cccnc3)cc(C(F)(F)F)n2)cc1
2. CS(=O)(=O)c1ccc(-c2nc(NCC3CCCCC3)cc(C(F)(F)F)n2)cc1
3. NS(=O)(=O)c1ccc(-c2nc(NCc3cccnc3)cc(C(F)(F)F)n2)cc1
4. CS(=O)(=O)c1ccc(-c2nc(NCc3csc4ccccc34)cc(C(F)(F)F)n2)cc1

["> 1", "> 3610", "> 1", "> 1"]

Answer for every listed entry: what is its Ratio IC50? The entries follow.
1. NS(=O)(=O)c1ccc(-c2nc(NCC3CCCCC3)cc(C(F)(F)F)n2)cc1
2. NS(=O)(=O)c1ccc(-c2nc(NCc3ccccn3)cc(C(F)(F)F)n2)cc1

> 140
> 33

Answer for every listed entry: what is its Ratio IC50? The entries follow.
1. CS(=O)(=O)c1ccc(-c2nc(NCc3ccccn3)cc(C(F)(F)F)n2)cc1
2. NS(=O)(=O)c1ccc(-c2nc(NCc3cc4ccccc4s3)cc(C(F)(F)F)n2)cc1

1. > 1
2. 6570
